Reference source: patent US20120178682A1

measured on: D-VEGF, synthetic D-protein form of VEGF-A(8-109) (Homo sapiens (Human)) (UniProt P15692)
Sequence (P15692 214-315 limits assumed, form in doubt): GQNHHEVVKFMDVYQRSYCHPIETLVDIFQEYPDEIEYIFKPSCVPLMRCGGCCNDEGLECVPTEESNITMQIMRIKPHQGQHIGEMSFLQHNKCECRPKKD
assay summary: SPR (ProteOn XPR36), D-VEGF immobilized
experimental endpoint: Kd (nM)

For orientation, consider the following solved cases.
binder	Kd (nM)
E01-D39F/A34S (designed binder) MKIEEHHHHHHHHHHGGSTYKLILNGKTLKGETTTEAVDVYDAFDVFFVYASSNFSFFDDWTYDDATKTFTVTEGGSDK	4.49
E01-D39F/F40I (designed binder) MKIEEHHHHHHHHHHGGSTYKLILNGKTLKGETTTEAVDVYDAFDVFFVYAASNFSFIDDWTYDDATKTFTVTEGGSDK	2.29

P. E01-D39F/S35E (designed binder) MKIEEHHHHHHHHHHGGSTYKLILNGKTLKGETTTEAVDVYDAFDVFFVYAAENFSFFDDWTYDDATKTFTVTEGGSDK
Q. E01-D39F/V31A (designed binder) MKIEEHHHHHHHHHHGGSTYKLILNGKTLKGETTTEAVDVYDAFDVFFAYAASNFSFFDDWTYDDATKTFTVTEGGSDK
R. E01-D39F/V22L (designed binder) MKIEEHHHHHHHHHHGGSTYKLILNGKTLKGETTTEAVDLYDAFDVFFVYAASNFSFFDDWTYDDATKTFTVTEGGSDK
Task: Let's sort these by Kd, smallest first. Go ahead? Kindly provide the labels arranged according to the requested ordering.
Output: R, Q, P
